# assayTarget: hemagglutinin (HA) of influenza virus H3N2 A/Wisconsin/67/05 (influenza A virus)
# assayProcedure: cell-based or functional assay
valueKind: average neutralization titer (nM)
Express your answer in nM, writing the number without its unit.

Task item: // lookup average neutralization titer for MD2306 (bispecific antibody) EVQLVESGGGLVQPGGSLRLSCAVSISIFDIYAMDWYRQAPGKQRDLVATSFRDGSTNYADSVKGRFTISRDNAKNTLYLQMNSLKPEDTAVYLCHVSLYRDPLGVAGGMGVYWGKGALVTVSSGGGGSGGGGSEVQLVESGGGLVQPGGSLRLSCAVSISIFDIYAMDWYRQAPGKQRDLVATSFRDGSTNYADSVKGRFTISRDNAKNTLYLQMNSLKPEDTAVYLCHVSLYRDPLGVAGGMGVYWGKGALVTVSSGGGGSGGGGSEVQLVESGGGLVQPGGSLRLSCAATGFTLENKAIGWFRQTPGSEREGVLCISKSGSWTYYTDSMRGRFTISRDNAENTVYLQMDSLKPEDTAVYYCATTTAGGGLCWDGTTFSRLASSWGQGTQVTVSS
Reply: 5.4
